Test system: SF-268 CNS
Experiment: NCI-60 one-dose screen, 48 h (100 = growth as untreated, 0 = no growth, -100 = all killed)
Details: 10 µM unless noted
Compounds without any hit were thinned out: in the full panel of roughly 83,000, 20% have a hit. Active and inactive are the calls of the source. How the source made its calls: active means growth percent below 10; inactive means the rest.
Listed here are compounds together with their documented growth.

{"columns": ["CHEMICAL STRUCTURE", "TARGET UNDER TEST", "growth"],
 "data": [
  ["OC(COc1ccccc1Cl)COc1ccccc1Cl", "SF-268 CNS", "97.3% (inactive)"],
  ["CCCCCCCCCCCCCCCCCC1=NCCN1CCOC1=C(Cl)C(=O)c2ccccc2C1=O", "SF-268 CNS", "91.2% (inactive)"],
  ["CCN(CC)S(=O)(=O)c1cccc(-c2ccc3c(NC(=O)C4CC4)n[nH]c3c2)c1", "SF-268 CNS", "35.8% [6.25 µM] (inactive)"],
  ["COc1ccc(-c2nc(SCCC(C)C)nc(N/N=C\\c3cccc([N+](=O)[O-])c3)c2C#N)cc1", "SF-268 CNS", "25.1% (inactive)"],
  ["COc1cc2ncn3c(=O)c4c5c(sc4nc3c2cc1OC)CCCC5", "SF-268 CNS", "94.3% (inactive)"],
  ["c1ccc2cc3nc4cc5ccccc5cc4nc3cc2c1", "SF-268 CNS", "97.7% (inactive)"],
  ["Cc1ccc(Nc2ccc(Nc3ccc(C)cc3)c3c2C(=O)c2cccc(O)c2C3=O)cc1", "SF-268 CNS", "104% (inactive)"],
  ["COc1ccc2oc3c(C)c4c(c(C)c3c2c1)C(=O)N(Cc1ccccc1)C4=O", "SF-268 CNS", "87.8% (inactive)"],
  ["O=C(/C=C/c1cccc(O)c1)c1cccc(-n2cc(-c3ccc4ccccc4c3)[nH]c2=O)c1", "SF-268 CNS", "-6.97% (active)"],
  ["COc1cc(C(=O)c2cc(C)c3[nH]c4ccc(Cl)cc4c3c2C)cc(OC)c1OC", "SF-268 CNS", "25.5% (inactive)"]
]}

---

Listed here are compounds together with their documented growth.
Test system: K-562 leukemia
Experiment: NCI-60 one-dose screen, 48 h (100 = growth as untreated, 0 = no growth, -100 = all killed)
Details: 10 µM unless noted
The panel holds about 83,000 compounds, 20% with a hit somewhere; the sample as a whole holds those more often.

{"columns": ["COMPOUND", "growth / %"],
 "data": [
  ["COc1cc(C2CC(=O)Nc3c2c(C)nn3-c2nc3ccccc3[nH]2)c(OC)c(OC)c1OC (stereo not drawn)", 20.5],
  ["COc1cc(-c2nn(-c3ccccc3)cc2-c2ccnc(NCCNS(=O)(=O)c3ccc(Cl)cc3)n2)ccc1Cl", 27.7],
  ["Cc1ccc(/C=C/c2c(C(=O)/C=C/c3ccc(C(F)(F)F)cc3)c(C)nc3ccccc23)cc1", -16.6],
  ["CC1OC(O[C@H]2/C=C/C=C/C=C/C=C/C=C/C=C/C=C/[C@H](C)[C@@H](O)[C@@H](C)[C@H](C)OC(=O)CC(O)CC(O)CCC(O)C(O)CC(O)C[C@]3(O)C[C@H](O)C(C(=O)O)C(C2)O3)C(O)[C@H](N)C1O (stereo partly drawn)", 91.8],
  ["COc1nc(N(C)O)nc(N(C)O)n1", 20.3],
  ["COc1cc(N=Nc2ccc(N)cc2)c(OC)cc1N=Nc1ccccc1.[Cl][Zn][Cl]", 104],
  ["O=c1[nH]c2ccccc2n1C1CCN(CCOc2ccccc2)CC1", 11.4],
  ["O=C(Nc1ccccc1-c1nc2ccccc2c(=O)[nH]1)c1cc2ccccc2[nH]1", 94.1]
]}

---

System: SR leukemia
Test: NCI-60 one-dose screen, 48 h
Conditions: 10 µM unless noted
Procedure: Growth inhibition of the SR human tumor cell line is measured as a screen for anti-cancer activity. Cells are grown in 96 well plates and exposed to the test compound for 48 hours. Compounds are tested at a single concentration, which is 10^-5 M for most compounds. The reported endpoint is percent growth (GI% or GIPRCNT), where numbers from 0 - 100% represent growth inhibition, and numbers from -100% - 0 represent cell death. For example, a value of 40 represents 60% growth inhibition. […]
The panel holds about 83,000 compounds, 20% with a hit somewhere; the sample as a whole holds those more often. The source made the active and inactive calls. How the source made its calls: active means growth percent below 10; inactive means the rest.
Labels: 1 = active, -1 = inactive

{"columns": ["COMPOUND", "LABEL VALUE"],
 "data": [
  ["O=C(NCCNc1cc(-c2cn(-c3ccccc3)nc2-c2cccc(O)c2)ccn1)Nc1ccccc1", 1],
  ["COc1ccc2[nH]c(O)c(/C=c3/cc4c(c(-c5ccc(F)c(OC)c5)n3)=Nc3ccccc3-4)c2c1", 1],
  ["Cc1nn(-c2ccccc2)c2nc3c(c(-c4ccc(Cl)cc4)c12)CNC1(CCSCC1)N3", -1],
  ["CC/C=C\\C[C@H](O)C/C=C1/C(=O)C=C[C@@H]1C/C=C\\CCCCO", 1],
  ["COC(=O)[C@]12CC[C@@H](C)[C@H](C)[C@@H]1C1=CC[C@@H]3[C@@]4(C)C(C=O)=C[C@@](C)(COC(C)=O)[C@@H]4C(=O)C[C@@]3(C)[C@]1(C)CC2", -1],
  ["c1ccc2c(c1)nc(CN1CCOCC1)n1cc(N3CCCC3)nc21", -1],
  ["NS(=O)(=O)c1cnccc1Sc1ccncc1S(N)(=O)=O", -1],
  ["Cc1cc(N2CCCC2)nc(NCc2cc(Nc3ccnc4cc(Cl)ccc34)ccc2F)n1", 1],
  ["CC(=O)[C@@H]1CC[C@]2(COS(=O)(=O)c3ccc(C)cc3)CC[C@]3(C)[C@H](CC[C@@H]4[C@@]5(C)CCCNC(C)(C)[C@@H]5CC[C@]43C)[C@@H]12", 1],
  ["O=C(CC(SCc1ccccc1)c1ccccc1)c1ccccc1 (configuration not stated)", -1],
  ["CCN1CCN(c2cc(C)nc(NCc3cc(Nc4ccnc5cc(Cl)ccc45)ccc3F)n2)CC1", 1],
  ["N#C/C(=C\\c1ccc(Br)cc1)n1nnc2cc(F)c(F)cc21", 1],
  ["CCOC(=O)/C=C/c1cc2cc(-c3csc4ccccc34)ccc2[nH]1", 1],
  ["COc1cccc(-c2nn(-c3ccccc3)cc2-c2ccnc(NCCCNC(=O)Nc3ccc(Cl)c(Cl)c3)c2)c1", 1],
  ["O=C(NC(CSSCC(NC(=O)c1ccccc1)C(=O)O)C(=O)O)c1ccccc1 (configuration not stated)", -1],
  ["COc1ccc(-c2csc(C3=C(O)CN(CCCN4CCCC4=O)C3=N)n2)cc1OC", -1],
  ["COc1ccc(-c2nc3c(c(=O)n2C(C)=O)C(c2ccc(Cl)cc2)c2sc4c(Cl)cccc4c2O3)cc1 (configuration not stated)", 1],
  ["COC(=O)[C@]12CC[C@@H](C)[C@H](C)[C@@H]1C1=CC[C@@H]3[C@@]4(C)C(C=O)=C[C@@](C)(COC(C)=O)[C@@H]4[C@H](O)C[C@@]3(C)[C@]1(C)CC2", 1],
  ["COc1cc(N=Nc2ccc(N)cc2)c(OC)cc1N=Nc1ccccc1.[Cl][Zn][Cl]", -1],
  ["CN1CCN(C(=O)c2c3c(n4ccccc24)C(=O)c2ncccc2C3=O)CC1", -1],
  ["Cn1cc(-c2csc(-c3ccccc3)n2)c2cccnc21", 1],
  ["CC(=O)c1ccc(NCC(=O)Nc2ccccn2)cc1", -1],
  ["N#C/C(=C/C=C/c1cccc(Cl)c1)S(=O)c1ccccc1 (configuration not stated)", 1],
  ["Cn1c2c(c3ccc(Cl)c(Cl)c31)C(C#N)C1(CCNCC1)NC2=O (configuration not stated)", -1],
  ["O=C(O)c1ccc2c(c1Cl)C(=O)c1ccccc1C2=O", -1],
  ["COc1cc(/C=C/C(=O)c2cccc(-n3cc(-c4ccccc4)[nH]c3=O)c2)ccc1O", -1],
  ["N#Cc1nc2c(S(=O)(=O)c3ccc(Cl)cc3)c(N)n(Nc3cccc(Cl)c3)c2nc1C#N", 1],
  ["S=C(Cc1ccc2c(c1)CCCC2)N1CCOCC1", -1],
  ["COC(=O)[C@]12CC[C@@H](C)[C@H](C)[C@@H]1C1=CC[C@@H]3[C@@]4(C)C(C=O)=C[C@@](C)(CO)[C@@H]4[C@H](O)C[C@@]3(C)[C@]1(C)CC2", 1],
  ["CC/C=C\\C/C=C\\C[C@H](O)C/C=C1/C(=O)C=C[C@@H]1C/C=C\\CCCC(=O)O", 1],
  ["COc1cc(/C=C/C(=O)c2ccc(Nc3nc(Nc4ccc(F)cc4)nc(Nc4ccc(Cl)cc4)n3)cc2)cc(OC)c1OC", 1],
  ["O=C1C=C[C@]2(C[C@@H](c3cccc(C(F)(F)F)c3)O[C@@H](c3cccc(C(F)(F)F)c3)O2)O1", 1],
  ["Cc1cc(C)c2c(-c3nnc(N)s3)cc(=O)oc2c1", -1],
  ["CN(C)c1ccc(-c2cc(-c3ccc(Nc4nc(Nc5ccc(Cl)cc5)nc(Nc5ccc(Cl)cc5)n4)cc3)no2)cc1", 1],
  ["Cc1ccc(-c2c(-c3ccccc3)c(=O)oc3ccc(C)cc23)cc1", -1],
  ["C=CC(=O)Nc1cccc(Oc2nccc(Nc3nnc(C4CC4)s3)n2)c1", -1],
  ["COc1ccccc1CNCCCN1C(=O)c2ccc3c4c(ccc(c24)C1=O)C(=O)N(CCCNCCCCN)C3=O", 1]
]}
